B1: EEHEE_rd3_1049 (parent)
chain: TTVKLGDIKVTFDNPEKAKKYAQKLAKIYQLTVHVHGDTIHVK

- Variants of: B1
- ASSAY TEXT: folding stability dG (cDNA display proteolysis); higher = more stable
- ASSAY CONTEXT: PBS, room temperature
Decide by folding stability dG: equal to or exceeding 2 kcal/mol means criterion met, less means criterion not met.

>  <SEQUENCE CHAIN>
TTVKLGDIKVTFDNPEKAKKYAQKLAKIWQLTVHVHGDTIHVK [Y29W]

>  <CATEGORY LABEL>
criterion not met

$$$$
>  <SEQUENCE CHAIN>
TTVKLGDIKVTFDNPEKAKKYAQKLAKVYQLTVHVHGDTIHVK [I28V]

>  <CATEGORY LABEL>
criterion not met

$$$$
>  <SEQUENCE CHAIN>
TTVKLGDIKVTFDNPEKAKKYAQKLAKIYVLTVHVHGDTIHVK [Q30V]

>  <CATEGORY LABEL>
criterion not met

$$$$
>  <SEQUENCE CHAIN>
TTVKLGDIKVTFDNPEKAKKYAQKVAKIYQLTVHVHGDTIHVK [L25V]

>  <CATEGORY LABEL>
criterion not met

$$$$
>  <SEQUENCE CHAIN>
TTVKLGDIKVTFDNPEKAKKYAQKLAKIYQLTVHVHGDYIHVK [T39Y]

>  <CATEGORY LABEL>
criterion not met

$$$$
>  <SEQUENCE CHAIN>
TTVKQGDIKVTFDNPEKAKKYAQKLAKIYQLTVHVHGDTIHVK [L5Q]

>  <CATEGORY LABEL>
criterion not met

$$$$
>  <SEQUENCE CHAIN>
TTVKLGDIKVTFDNPEKAKKYAQKLHKIYQLTVHVHGDTIHVK [A26H]

>  <CATEGORY LABEL>
criterion not met

$$$$
>  <SEQUENCE CHAIN>
TTVHLGDIKVTFDNPEKAKKYAQKLAKIYQLTVHVHGDTIHVK [K4H]

>  <CATEGORY LABEL>
criterion met

$$$$
>  <SEQUENCE CHAIN>
TTVKLGDIKVTFDNPEKAQKYAQKLAKIYQLTVHVHGDTIHVK [K19Q]

>  <CATEGORY LABEL>
criterion not met

$$$$
>  <SEQUENCE CHAIN>
TTVKLGDIKVTFMNPEKAKKYAQKLAKIYQLTVHVHGDTIHVK [D13M]

>  <CATEGORY LABEL>
criterion met

$$$$
>  <SEQUENCE CHAIN>
TTVKLGDIKVTFDNPEKAKKYAQKLAKRYQLTVHVHGDTIHVK [I28R]

>  <CATEGORY LABEL>
criterion met

$$$$
>  <SEQUENCE CHAIN>
CTVKLGDIKVTFDNPEKAKKYAQKLAKIYQLTVHVHGDTIHVK [T1C]

>  <CATEGORY LABEL>
criterion met

$$$$
>  <SEQUENCE CHAIN>
TTVKLGDIKVTFDNPEKAKKYAQKLAKIYQLTVHVFGDTIHVK [H36F]

>  <CATEGORY LABEL>
criterion met

$$$$
>  <SEQUENCE CHAIN>
TTVKLGDIKVTFDNPEKAKKYAQKLAKIHQLTVHVHGDTIHVK [Y29H]

>  <CATEGORY LABEL>
criterion not met

$$$$
>  <SEQUENCE CHAIN>
TPVKLGDIKVTFDNPEKAKKYAQKLAKIYQLTVHVHGDTIHVK [T2P]

>  <CATEGORY LABEL>
criterion not met

$$$$
>  <SEQUENCE CHAIN>
TTVKLGDIKVTFDNPEKAKKYAQKLAKGYQLTVHVHGDTIHVK [I28G]

>  <CATEGORY LABEL>
criterion not met

$$$$
>  <SEQUENCE CHAIN>
TTVKLGDIKVTFDNPEKAKKYAQKLAKIYQLTCHVHGDTIHVK [V33C]

>  <CATEGORY LABEL>
criterion met

$$$$
>  <SEQUENCE CHAIN>
TTVKLGDIKVTFDNPEKAKKYAQKLAKIYQLTVHVHGDTIHVY [K43Y]

>  <CATEGORY LABEL>
criterion met

$$$$
>  <SEQUENCE CHAIN>
TTVKLGMIKVTFDNPEKAKKYAQKLAKIYQLTVHVHGDTIHVK [D7M]

>  <CATEGORY LABEL>
criterion met

$$$$
>  <SEQUENCE CHAIN>
TTVKLGDIKVTFDNPEKAKKYAQKLAKIYQLTRHVHGDTIHVK [V33R]

>  <CATEGORY LABEL>
criterion not met

$$$$
>  <SEQUENCE CHAIN>
TTVKLGDIKVTFDNPEDAKKYAQKLAKIYQLTVHVHGDTIHVK [K17D]

>  <CATEGORY LABEL>
criterion met

$$$$
>  <SEQUENCE CHAIN>
TTVKLGDIKVTFDNPEKAKKYAQKLAKIYQATVHVHGDTIHVK [L31A]

>  <CATEGORY LABEL>
criterion not met

$$$$
>  <SEQUENCE CHAIN>
TTVKLGDIKVTFDNPEKAKKYAQKLAKIYQLTGHVHGDTIHVK [V33G]

>  <CATEGORY LABEL>
criterion not met

$$$$
>  <SEQUENCE CHAIN>
TTVKLGDIKVTFDNPEKAKKYAQKLAKIYGLTVHVHGDTIHVK [Q30G]

>  <CATEGORY LABEL>
criterion met

$$$$
>  <SEQUENCE CHAIN>
TTVKLGDIKRTFDNPEKAKKYAQKLAKIYQLTVHVHGDTIHVK [V10R]

>  <CATEGORY LABEL>
criterion not met

$$$$
>  <SEQUENCE CHAIN>
TTVKLGDIKVTFDNPEKAKKYAQKLAKIYQLTVHVVGDTIHVK [H36V]

>  <CATEGORY LABEL>
criterion met

$$$$
>  <SEQUENCE CHAIN>
TTVKLGDIKVTFDNPHKAKKYAQKLAKIYQLTVHVHGDTIHVK [E16H]

>  <CATEGORY LABEL>
criterion not met

$$$$
>  <SEQUENCE CHAIN>
TTVKLGDIKVTFDNPVKAKKYAQKLAKIYQLTVHVHGDTIHVK [E16V]

>  <CATEGORY LABEL>
criterion not met

$$$$
>  <SEQUENCE CHAIN>
TTVKLGDIKVTFDNPEKAKKYAQKLAKIYQLTVHVHGDWIHVK [T39W]

>  <CATEGORY LABEL>
criterion not met

$$$$
>  <SEQUENCE CHAIN>
TTVKLYDIKVTFDNPEKAKKYAQKLAKIYQLTVHVHGDTIHVK [G6Y]

>  <CATEGORY LABEL>
criterion not met

$$$$
>  <SEQUENCE CHAIN>
TTVKLGDIKQTFDNPEKAKKYAQKLAKIYQLTVHVHGDTIHVK [V10Q]

>  <CATEGORY LABEL>
criterion not met

$$$$
>  <SEQUENCE CHAIN>
TTVKLGDIKVTFDNPEKAKKAAQKLAKIYQLTVHVHGDTIHVK [Y21A]

>  <CATEGORY LABEL>
criterion not met

$$$$
>  <SEQUENCE CHAIN>
TTVKLGDIKVTFDNPEKFKKYAQKLAKIYQLTVHVHGDTIHVK [A18F]

>  <CATEGORY LABEL>
criterion not met

$$$$
>  <SEQUENCE CHAIN>
TTVKLGDIKVTFDNPEKAKKYAWKLAKIYQLTVHVHGDTIHVK [Q23W]

>  <CATEGORY LABEL>
criterion met

$$$$
>  <SEQUENCE CHAIN>
TTVKLGDIKVTFDNPEKAKKYAQKLAKIYQMTVHVHGDTIHVK [L31M]

>  <CATEGORY LABEL>
criterion met

$$$$
>  <SEQUENCE CHAIN>
TTVKLGDIKVTFDNPEKAKKYAQKLAKIYQLTVHTHGDTIHVK [V35T]

>  <CATEGORY LABEL>
criterion not met

$$$$
>  <SEQUENCE CHAIN>
TTVKLGDIRVTFDNPEKAKKYAQKLAKIYQLTVHVHGDTIHVK [K9R]

>  <CATEGORY LABEL>
criterion met

$$$$
>  <SEQUENCE CHAIN>
TTVKLGDIKVTFDNPEKAKKYAQKLAKIYQLTVHYHGDTIHVK [V35Y]

>  <CATEGORY LABEL>
criterion met

$$$$
>  <SEQUENCE CHAIN>
TTVKLGDIKVTFDNPEKAKPYAQKLAKIYQLTVHVHGDTIHVK [K20P]

>  <CATEGORY LABEL>
criterion not met

$$$$
>  <SEQUENCE CHAIN>
TTVKLGDIKVTFDNPEKAKKYAQKLAKIYQLTVHVHDDTIHVK [G37D]

>  <CATEGORY LABEL>
criterion not met

$$$$
>  <SEQUENCE CHAIN>
TTVKLGDIKVTFDNPEKAKKYAQKLAKIYQLTVHVHGDTIHHK [V42H]

>  <CATEGORY LABEL>
criterion not met

$$$$
>  <SEQUENCE CHAIN>
TTVKLGDIKVTFDNPEKAKKYAQKLCKIYQLTVHVHGDTIHVK [A26C]

>  <CATEGORY LABEL>
criterion met

$$$$
